Here, each record is paired with measured protein stability index data.
B1: ZNF511 (parent)
chain: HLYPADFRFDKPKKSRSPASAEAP

Variants of: B1
Test: protein stability index of a GFP-peptide fusion (GPS, HEK-293T) (PSI 1-6); higher = more stable;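 also: lentivirally expressed fusions sorted by FACS into six bins by GFP to DsRed ratio, PSI derived from sequencing read proportions per bin multiplied by bin number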
Conditions: c terminus: a fixed tail appended
The answer should be written as a number, with no unit following it.

Below: 5 variants and their reported protein stability index.
[
  {
    "Variant Annotation": "K14V",
    "Measured": 2.33
  },
  {
    "Variant Annotation": "A19I",
    "Measured": 2.74
  },
  {
    "Variant Annotation": "Y3T",
    "Measured": 4.65
  },
  {
    "Variant Annotation": "F9M",
    "Measured": 2.01
  },
  {
    "Variant Annotation": "E22A",
    "Measured": 2.7
  }
]

Could you share which protein stability index value was measured for "A19F" ?
2.05

Any idea what its protein stability index is? The variant is "R16E"
3.34

What value of protein stability index has been reported for the following variant? "P24D"
3.44

Quick one: protein stability index of "Y3E" ?
3.71

What measured protein stability index goes with "E22K" ?
2.69

Please look up its protein stability index: "A19P"
3.18

Any idea what its protein stability index is? The variant is "F7D"
4.63

Given the variant "S20M" , what is its reported protein stability index?
2.68

Data request, read-out protein stability index, for "H1S"
4.48

What measured protein stability index goes with "K11N" ?
3.37

Which measured protein stability index value corresponds to "P24Q" ?
2.6

Fill in the blank: the reported protein stability index of "F9D" is ____.
2.1

May I ask what protein stability index has been recorded for "S15D" ?
3.35

Can you look up the measured protein stability index of "L2A" for me?
4.37

From: the supplement of paper PMC10567573
